B1: Protein amnionless (Homo sapiens), Q9BXJ7 (parent)
chain: MGVLGRVLLWLQLCALTQAVSKLWVPNTDFDVAANWSQNRTPCAGGAVEFPADKMVSVLVQEGHAVSDMLLPLDGELVLASGAGFGVSDVGSHLDCGAGEPAVFRDSDRFSWHDPHLWRSGDEAPGLFFVDAERVPCRHDDVFFPPSASFRVGLGPGASPVRVRSISALGRTFTRDEDLAVFLASRAGRLRFHGPGALSVGPEDCADPSGCVCGNAEAQPWICAALLQPLGGRCPQAACHSALRPQGQCCDLCGAVVLLTHGPAFDLERYRARILDTFLGLPQYHGLQVAVSKVPRSSRLREADTEIQVVLVENGPETGGAGRLARALLADVAENGEALGVLEATMRESGAHVWGSSAAGLAGGVAAAVLLALLVLLVAPPLLRRAGRLRWRRHEAAAPAGAPLGFRNPVFDVTASEELPLPRRLSLVPKAAADSTSHSYFVNPLFAGAEAEA

Variants of: B1
Settings: with cubn_human CUBN
readoutKind: effect of a mutation on the interaction

variantId | value
S37A | with no effect
S37A;T41I | with no effect
T41I | with no effect
